Tested on: DU-145 prostate
Assay: NCI tumour cell line growth inhibition, 48 h
recorded.metric: GI50

Answered examples (5):
* Cn1nccc1Nc1nccc(-c2cc3c(s2)C(C)(C)N(CCN2CCOCC2)C3=O)n1 | 25.8 µM
* Cc1cc(N2CCCCC2)nc(N(CCCNc2ccnc3cc(Cl)ccc23)Cc2ccco2)n1 | 3.14 µM
* COC(=O)Nc1nc2ccc(Oc3ccc(NC(=O)Nc4cccc(C(=O)O)c4)cc3)cc2[nH]1 | 8.07 µM
* Cn1ccnc1C(=O)/C=C/c1ccc(C(=O)Nc2ccc(Cl)cc2)cc1 | 1.32 µM
* CC1=C[C@H]2c3c(c(O)c(O)c4oc5c(C)cccc5c(=O)c34)[C@H](c3cc(O)c(O)c4oc5c(C)cccc5c(=O)c34)[C@H]2C(C)(C)C1 | 3.13 µM

Lookup result for CC(C)=CCC[C@H](C)[C@@H]1CC[C@]2(C)C3CC[C@]4(OC4(C)C)C(CCCO)[C@]3(C)CC[C@@]12C (some centres undefined) ; measured GI50: 32.9 µM

The reported value for CC1=C(C(=O)Nc2ccc(F)c(Cl)c2)C(c2ccccc2Cl)NC(=S)N1 (centres undefined) in terms of GI50 is > 50 µM

Briefly, GI50 measured for `O=[N+]([O-])c1ccc(Br)c([N+](=O)[O-])c1` : 1.72 µM

Record `O=C(Nc1ccccc1O)c1cccc(NC2=C(Cl)C(=O)N(Cc3ccccc3)C2=O)c1` , field GI50: 7.07 µM
